# experimental.system: T1, RbpB (Bacteroides thetaiotaomicron VPI-5482, UniProt Q8A6J4 1-100)
# T1 sequence: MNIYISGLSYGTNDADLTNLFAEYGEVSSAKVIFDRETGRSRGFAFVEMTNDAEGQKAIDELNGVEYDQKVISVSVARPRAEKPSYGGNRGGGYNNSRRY
# test: EMSA
assay.endpoint: Kd
Answers without a unit are incomplete; give the number and then its unit.

Ask | Name the reported Kd value associated with the binder GUAGGAUAGUAGGAUAGUAGGAUA (ssRNA) [Motif 1 x3]
Reply | 5.1 µM
